# Test system: HL-60
# Method: cell viability (% survival relative to DMSO control, bortezomib = 0%); higher = less cytotoxic
# Applied Conditions: 100 nM; 72 h
# reported cell viability; entries follow
Expressed in %, but write only the number.

Please review the following examples before continuing.
| Compound | Property Measured | Unit Abbreviation | Measured Value |
| --- | --- | --- | --- |
| CNC(=C[N+](=O)[O-])NCCSCc1ccc(CN(C)C)o1 [Ranitidine] | cell viability | % | 97.5 |
| O=c1[nH]c(=O)n([C@H]2C[C@H](O)[C@@H](CO)O2)cc1I [Idoxuridine] | cell viability | % | 102 |
| Oc1ncc(F)c(O)n1 [5-fluorouracil] | cell viability | % | 138 |
| CC(C)(F)C[C@H](N[C@@H](c1ccc(-c2ccc(S(C)(=O)=O)cc2)cc1)C(F)(F)F)C(=O)NC1(C#N)CC1 [Odanacatib] | cell viability | % | 114 |
| Cl.NC1=CCCN1Cc1nc(O)nc(O)c1Cl [Tipiracil] | cell viability | % | 127 |
| Clc1cc(Cl)c(OCC#CI)cc1Cl [Haloprogin] | cell viability | % | 108 |

Which cell viability value belongs to NCc1ccc(S(N)(=O)=O)cc1 [4-Homosulfanilamide] ?
109

Given the entry OCCN1C[C@H](O)[C@@H](O)[C@H](O)[C@H]1CO [Miglitol] , report its measured cell viability.
93.1

Look up cell viability: CC(=O)N[C@@H](CS)C(=O)O [Acetylcysteine]
93.5

Find the recorded cell viability belonging to CC(C)(CS(=O)(=O)[O-])NC(=O)CC[N+](C)(C)CCO and report it.
97.8

Query: cell viability; subject: O=c1oc2c(cc1O)oc(=O)c1cc(O)c(O)c(O)c12 [Galloflavin]
114

What cell viability value was documented for this compound, COc1cc(C2Oc3cc(C4Oc5cc(O)cc(O)c5C(=O)C4O)ccc3OC2CO)ccc1O (stereo not drawn) [Silibinin] ?
96.9

Given the compound O=C1N[C@@H]2[C@@H](O)[C@@H](O)[C@H](O)[C@@H](CO)N2C1=O [Kifunensine] , what is its reported cell viability?
120

----------
# Tested on: MOLM-13
# Method: cell viability (% survival relative to DMSO control, bortezomib = 0%); higher = less cytotoxic
# Applied Conditions: 100 nM; 72 h
Property Measured: cell viability (%)
Entry rule: numbers only, all in %.

Consider the following illustrative entries.
| Compound | System Under Test | cell viability / % |
| --- | --- | --- |
| c1ccc2c(c1)SCc1c-2[nH]c2ccccc12 | MOLM-13 | 100 |
| CN(C)CCNC(=O)c1cccn2c(=O)c3cc4ccccc4cc3nc12 | MOLM-13 | 102 |
| CCCCCCCCCCCCCCOc1ccc(C(=O)O)o1 | MOLM-13 | 98.8 |
| NS(=O)(=O)c1ccc(S(=O)(=O)Nc2cccc3c(Cl)c[nH]c23)cc1 | MOLM-13 | 97.8 |
| Cc1nc(-c2ccc(OCC(C)C)c(C#N)c2)sc1C(=O)O | MOLM-13 | 141 |
| OCCN(CCO)c1nc(N2CCCCC2)c2nc(N(CCO)CCO)nc(N3CCCCC3)c2n1 | MOLM-13 | 97.5 |
| CCC(CC#N)OC(=O)N[C@@H](C)c1cccc(NC(=O)Nc2ccc(-c3cnco3)c(OC)c2)c1 (stereo in doubt) | MOLM-13 | 8.35 |
| CN(C)C(=O)n1nnnc1Cc1ccc(-c2ccccc2)cc1 | MOLM-13 | 115 |

Sample NCc1ccc(-c2cccnc2)s1 — what was its cell viability?
93.7

cell viability for N[C@@H](CCC(=O)N[C@@H](CS)C(=O)NCC(=O)O)C(=O)O ?
91.4

----------
# System: ML-2
# Method: cell viability (% survival relative to DMSO control, bortezomib = 0%); higher = less cytotoxic
# Applied Conditions: 10000 nM; 72 h
Checkbox rule: cell viability lower than 90% = label 1; cell viability not lower than 90% = label 0.

// known answers, use as guide
| Compound | Class Assignment |
| --- | --- |
| CC(=O)N1CCN(c2ccc(OC[C@@H]3CO[C@@](Cn4ccnc4)(c4ccc(Cl)cc4Cl)O3)cc2)CC1 (racemic) | label 1 |
| NCc1ccc(S(N)(=O)=O)cc1 [4-Homosulfanilamide] | label 0 |
| C[C@H]1O[C@H](O[C@H]2[C@H](O)[C@@H](O)[C@@H](O[C@H]3[C@H](O)[C@@H](O)C(O)O[C@@H]3CO)O[C@@H]2CO)[C@H](O)[C@@H](O)[C@@H]1N[C@H]1C=C(CO)[C@@H](O)[C@H](O)[C@H]1O (mixture of isomers) | label 0 |
| N[C@@H](CCC(=O)N[C@@H](CS)C(=O)NCC(=O)O)C(=O)O | label 0 |
| NS(=O)(=O)c1ccc(S(=O)(=O)Nc2cccc3c(Cl)c[nH]c23)cc1 | label 1 |

Is it true that cell viability reported for O=NN(CCCl)C(=O)NCCCl is less than 90%?
label 0

Does CC(C)c1ccc2c(c1)c(SC(C)(C)C)c(CC(C)(C)C(=O)O)n2Cc1ccc(Cl)cc1 have cell viability strictly under 90%?
label 1

A record lists O=C(Oc1cccc(F)c1OC(=O)c1cccc(O)c1)c1cccc(O)c1 . Is its cell viability below 90%?
label 1

Record CCCCCCCCCCCCCCOc1ccc(C(=O)O)o1 : is its cell viability strictly below 90%?
label 0

Is cell viability of Oc1ncc(F)c(O)n1 strictly below 90%?
label 1

Threshold test, cell viability < 90%: CN(C)CCNC(=O)c1cccn2c(=O)c3cc4ccccc4cc3nc12
label 1

API: query returns whether the compound falls strictly under 90% in cell viability. Query: OCCN(CCO)c1nc(N2CCCCC2)c2nc(N(CCO)CCO)nc(N3CCCCC3)c2n1
label 1

Item CC(C)(O)CNc1nc(Nc2ccnc(C(F)(F)F)c2)nc(-c2cccc(C(F)(F)F)n2)n1 : cell viability beneath 90%, strictly?
label 1

In the record for CC(C)(F)C[C@H](N[C@@H](c1ccc(-c2ccc(S(C)(=O)=O)cc2)cc1)C(F)(F)F)C(=O)NC1(C#N)CC1 , is cell viability less than 90%?
label 0

----------
# Test system: HL-60
# Method: area under dose-response curve (viability, 1 nM-10 uM) (fraction (0-1)); higher = more sensitive
# Applied Conditions: 72 h; co-treatment: pictilisib 100 nM
Property Measured: area under dose-response curve

| Compound | System Under Test | area under dose-response curve |
| --- | --- | --- |
| O=C(/C=C/c1cccnc1)NCCCCC1CCN(C(=O)c2ccccc2)CC1 | HL-60 | 0.75 |
| N#Cc1ccc(C2CCCc3cncn32)cc1 (stereo not given) | HL-60 | < 0.0301 |
| CNC(=C[N+](=O)[O-])NCCSCc1ccc(CN(C)C)o1 | HL-60 | < 0.0301 |

Consider the compound shown here: CC(C)(CS(=O)(=O)[O-])NC(=O)CC[N+](C)(C)CCO What is its recorded area under dose-response curve?
< 0.0301

May I ask what area under dose-response curve has been recorded for OCCN(CCO)c1nc(N2CCCCC2)c2nc(N(CCO)CCO)nc(N3CCCCC3)c2n1 ?
< 0.0301

----------
# cell viability annotations
# Test system: HEL
# Method: cell viability (% survival relative to DMSO control, bortezomib = 0%); higher = less cytotoxic
# Applied Conditions: 10 nM; 72 h
Write down the value, and be sure its unit follows.

Example entries begin here.
| Compound | cell viability |
| --- | --- |
| N#Cc1ccc(C2CCCc3cncn32)cc1 (centres undefined) | 95.1% |
| CN(C)CCNC(=O)c1cccn2c(=O)c3cc4ccccc4cc3nc12 | 93.8% |
| O=C(Cc1cccc(OC(F)(F)F)c1)Nc1ccc(CCCCc2nnc(NC(=O)Cc3ccccn3)s2)nn1 | 85.6% |

I would be grateful if you could share the reported cell viability for CCCCC/C=C\C/C=C\C/C=C\C/C=C\CCCC(=O)C(F)(F)F .
89.6%

----------
# Test system: myeloid leukemia patient primary cells Pat.13
# Method: area under dose-response curve (viability, 1 nM-10 uM) (fraction (0-1)); higher = more sensitive
# Applied Conditions: 72 h
Property Measured: area under dose-response curve
// return just the number, without any unit appended

| Compound Structure | area under dose-response curve |
| --- | --- |
| Nc1ccn([C@@H]2O[C@H](CO)[C@@H](O)C2(F)F)c(=O)n1 | 0.0519 |

Now turn to the next compound.
Request - read-out area under dose-response curve | tested on myeloid leukemia patient primary cells Pat.13 | compound NS(=O)(=O)c1ccc(S(=O)(=O)Nc2cccc3c(Cl)c[nH]c23)cc1
0.167

----------
# Test system: MV4-11
# Method: cell viability (% survival relative to DMSO control, bortezomib = 0%); higher = less cytotoxic
# Applied Conditions: 10000 nM; 72 h
Property Measured: cell viability
Just the number plus its unit, please.

| Compound | cell viability |
| --- | --- |
| NC(CCC(=O)NC(CSCc1ccc(Br)cc1)C(=O)NCC(=O)OC1CCCC1)C(=O)OC1CCCC1 (centres undefined) | 93.4% |

Fill in: cell viability of O=C(Oc1ccc([N+](=O)[O-])cc1)N1CCC(C(O)(c2ccc3c(c2)OCO3)c2ccc3c(c2)OCO3)CC1 is ___
88.5%

Request the reported cell viability associated with CC1Cc2ccccc2N1NC(=O)c1ccc(Cl)c(S(N)(=O)=O)c1 (centres undefined) [Indapamide]
99.4%

What measured cell viability goes with O=[As]O[As]=O (centres undefined) [Arsenic trioxide] ?
20.4%

Which value of cell viability has been reported for CCCCCCCCCCCCC/C=C/[C@@H](O)[C@H](CO)N(C)C in the records?
95.8%

Return reported cell viability; argument: N=C(N)c1ccc(N=NNc2ccc(C(=N)N)cc2)cc1
77.9%

Entry Cc1nc(-c2ccc(OCC(C)C)c(C#N)c2)sc1C(=O)O : reported cell viability = ?
116%

If you can, please state the reported cell viability value of NCc1ccc(S(N)(=O)=O)cc1 [4-Homosulfanilamide] .
106%

Give the measured cell viability of CN(C)C(=N)NC(=N)N .
84.7%

Data provenance: the supplement of paper PMC8671470
